test: in vivo; conditions: Sprague-Dawley, rat, iv, 1 mg/kg
parameter-measured: clearance at 24 h

Record request: clearance at 24 h value, item "CN(C)Cc1nc(Nc2ccc(-c3cnc4cc(F)ccn34)c3c2C(=O)NC3)ccc1C1CCOCC1" 230 mL/min/kg

###

assay: Volume of distribution in Beagle dog at 1 mg/kg, iv measured upto 24 hrs by LC-MS/MS method; format: ADME, organism-based, Canis lupus familiaris; settings: in vivo
parameter-measured: Vd (L/kg)
Reply with just the number (in L/kg).

Record request: Vd value, item "CN(C)Cc1nc(Nc2ccc(-c3cnc4cc(F)ccn34)c3c2C(=O)NC3)ccc1C1CCOCC1" 24.2
